# assay system: Aurora-B (Homo sapiens)
# Construct: 6-histidine tag
# Sequence (Q96GD4 whole entry): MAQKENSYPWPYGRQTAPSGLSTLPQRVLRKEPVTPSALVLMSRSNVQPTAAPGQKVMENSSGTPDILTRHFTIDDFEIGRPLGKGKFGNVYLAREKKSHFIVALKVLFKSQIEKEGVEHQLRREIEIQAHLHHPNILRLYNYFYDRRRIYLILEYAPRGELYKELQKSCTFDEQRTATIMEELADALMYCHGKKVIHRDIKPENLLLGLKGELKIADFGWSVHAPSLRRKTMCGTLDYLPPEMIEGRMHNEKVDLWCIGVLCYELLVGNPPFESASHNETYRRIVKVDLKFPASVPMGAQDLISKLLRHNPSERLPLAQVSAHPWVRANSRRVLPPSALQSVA
# method description: In vitro Aurora-B kinase inhibition test
# settings: recombinant Aurora-B, 33P-ATP peptide substrate filter assay, 60 minutes, room temperature; read-out: concentration giving 50% inhibition of enzyme activity
# Source text: (b) In Vitro Aurora-B Kinase Inhibition Test This assay determines the ability of a test compound to inhibit serine-threonine kinase activity. DNA encoding Aurora-B may be obtained by total gene synthesis or by cloning. This DNA may then be expressed in a suitable expression system to obtain polypeptide with serine-threonine kinase activity. […]
observation type: IC50 (nM)

>>> readout_value("COc1cc2c(Nc3cc(CC(=O)Nc4cccc(F)c4)[nH]n3)ncnc2cc1OCCCN1CCC[C@H]1COP(=O)(O)O")
1.6

###

# assay system: Aurora-A (Homo sapiens)
# Construct: 6 histidine tag with spacer region and rTEV protease cleavage site (pFastBac HTc) (N)
# Sequence (O14965 whole entry): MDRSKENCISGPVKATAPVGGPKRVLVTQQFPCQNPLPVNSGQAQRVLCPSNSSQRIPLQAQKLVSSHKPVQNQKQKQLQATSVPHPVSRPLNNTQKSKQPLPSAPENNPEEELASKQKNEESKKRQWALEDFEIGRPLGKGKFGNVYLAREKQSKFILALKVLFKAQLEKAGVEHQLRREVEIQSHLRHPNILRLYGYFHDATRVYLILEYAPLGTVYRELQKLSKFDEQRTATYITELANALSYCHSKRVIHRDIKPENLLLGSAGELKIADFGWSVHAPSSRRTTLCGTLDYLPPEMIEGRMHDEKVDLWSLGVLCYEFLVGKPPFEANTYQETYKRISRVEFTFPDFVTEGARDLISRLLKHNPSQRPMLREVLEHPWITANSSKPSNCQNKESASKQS
# method description: In vitro Aurora-A kinase inhibition test
observation type: IC50

>>> readout_value("COc1cc2c(Nc3cc(CC(=O)Nc4cccc(F)c4)[nH]n3)ncnc2cc1OCCCN1CCC[C@H]1COP(=O)(O)O [Compound 5]")
"5.5 nM"

Hello, the source for this data is patent US9567358B2, in case you need it.
